Reported concentration at 72 h values for a set of compounds
procedureSummary: Urinary excretion study in rats after oral NS, SF or CNS (LC–MS/MS)
Assay type: in vivo
conditionNotes: male, Sprague Dawley, rat, urine, oral, 60 mg/kg, oral NS 60 mg/kg, 72 h
Numbers only; they are read as ng/mL.

CC(C)=CCC[C@](C)(O[C@@H]1O[C@H](CO)[C@@H](O)[C@H](O)[C@H]1O)[C@H]1CC[C@]2(C)[C@@H]1[C@H](O)C[C@@H]1[C@@]3(C)CC[C@H](O)C(C)(C)[C@@H]3[C@@H](O[C@@H]3O[C@H](CO)[C@@H](O)[C@H](O)[C@H]3O[C@@H]3O[C@@H](C)[C@H](O)[C@@H](O)[C@H]3O)C[C@]12C [ginsenoside Re] | 17

Input line: Give its concentration at 72 h value. Item: CC(C)=CCC[C@](C)(O[C@@H]1O[C@H](CO[C@@H]2O[C@H](CO)[C@@H](O)[C@H](O)[C@H]2O)[C@@H](O)[C@H](O)[C@H]1O)[C@H]1CC[C@]2(C)[C@@H]1[C@H](O)C[C@@H]1[C@@]3(C)CC[C@H](O[C@@H]4O[C@H](CO)[C@@H](O)[C@H](O)[C@H]4O[C@@H]4O[C@H](CO)[C@@H](O)[C@H](O)[C@H]4O)C(C)(C)[C@@H]3CC[C@]12C [ginsenoside Rb1]
Output line: 84

Input line: Query CC(C)=CCC[C@](C)(O[C@@H]1O[C@H](CO)[C@@H](O)[C@H](O)[C@H]1O)[C@H]1CC[C@]2(C)[C@@H]1[C@H](O)C[C@@H]1[C@@]3(C)CC[C@H](O[C@@H]4O[C@H](CO)[C@@H](O)[C@H](O)[C@H]4O[C@@H]4O[C@H](CO)[C@@H](O)[C@H](O)[C@H]4O)C(C)(C)[C@@H]3CC[C@]12C [ginsenoside Rd] next
Output line: 12

Input line: Query CC(C)=CCC[C@](C)(O[C@@H]1O[C@H](CO)[C@@H](O)[C@H](O)[C@H]1O)[C@H]1CC[C@]2(C)[C@@H]1[C@H](O)C[C@@H]1[C@@]3(C)CC[C@H](O)C(C)(C)[C@@H]3[C@@H](O[C@@H]3O[C@H](CO)[C@@H](O)[C@H](O)[C@H]3O)C[C@]12C [ginsenoside Rg1] next
Output line: 178

* * *

Reported concentration at 12 h values for a set of molecules
procedureSummary: Urinary excretion study in rats after oral NS, SF or CNS (LC–MS/MS)
Format: in vivo
conditionNotes: male, Sprague Dawley, rat, urine, oral, 60 mg/kg, oral NS 60 mg/kg, 12 h
Numbers only; they are read as ng/mL.

Study these solved cases before continuing.
CC(C)=CCC[C@](C)(O[C@@H]1O[C@H](CO[C@@H]2O[C@H](CO)[C@@H](O)[C@H](O)[C@H]2O)[C@@H](O)[C@H](O)[C@H]1O)[C@H]1CC[C@]2(C)[C@@H]1[C@H](O)C[C@@H]1[C@@]3(C)CC[C@H](O[C@@H]4O[C@H](CO)[C@@H](O)[C@H](O)[C@H]4O[C@@H]4O[C@H](CO)[C@@H](O)[C@H](O)[C@H]4O)C(C)(C)[C@@H]3CC[C@]12C [ginsenoside Rb1] | 214
CC(C)=CCC[C@](C)(O[C@@H]1O[C@H](CO)[C@@H](O)[C@H](O)[C@H]1O)[C@H]1CC[C@]2(C)[C@@H]1[C@H](O)C[C@@H]1[C@@]3(C)CC[C@H](O[C@@H]4O[C@H](CO)[C@@H](O)[C@H](O)[C@H]4O[C@@H]4O[C@H](CO)[C@@H](O)[C@H](O)[C@H]4O)C(C)(C)[C@@H]3CC[C@]12C [ginsenoside Rd] | 28
CC(C)=CCC[C@](C)(O[C@@H]1O[C@H](CO)[C@@H](O)[C@H](O)[C@H]1O)[C@H]1CC[C@]2(C)[C@@H]1[C@H](O)C[C@@H]1[C@@]3(C)CC[C@H](O)C(C)(C)[C@@H]3[C@@H](O[C@@H]3O[C@H](CO)[C@@H](O)[C@H](O)[C@H]3O)C[C@]12C [ginsenoside Rg1] | 727

Continue with the molecule presented below.
Input line: Give its concentration at 12 h value. Item: CC(C)=CCC[C@](C)(O[C@@H]1O[C@H](CO)[C@@H](O)[C@H](O)[C@H]1O)[C@H]1CC[C@]2(C)[C@@H]1[C@H](O)C[C@@H]1[C@@]3(C)CC[C@H](O)C(C)(C)[C@@H]3[C@@H](O[C@@H]3O[C@H](CO)[C@@H](O)[C@H](O)[C@H]3O[C@@H]3O[C@@H](C)[C@H](O)[C@@H](O)[C@H]3O)C[C@]12C [ginsenoside Re]
Output line: 33

* * *

Reported Accumulative excretion amount values for a set of compounds
procedureSummary: Fecal excretion study in rats after oral NS, SF or CNS (LC–MS/MS)
Format: in vivo
conditionNotes: rat feces, oral CNS 110 mg/kg, 24 h
Numbers only; they are read as µg.

CC(C)=CCC[C@](C)(O[C@@H]1O[C@H](CO)[C@@H](O)[C@H](O)[C@H]1O)[C@H]1CC[C@]2(C)[C@@H]1[C@H](O)C[C@@H]1[C@@]3(C)CC[C@H](O)C(C)(C)[C@@H]3[C@@H](O[C@@H]3O[C@H](CO)[C@@H](O)[C@H](O)[C@H]3O)C[C@]12C [ginsenoside Rg1] | 71.363
CC(C)=CCC[C@](C)(O[C@@H]1O[C@H](CO)[C@@H](O)[C@H](O)[C@H]1O)[C@H]1CC[C@]2(C)[C@@H]1[C@H](O)C[C@@H]1[C@@]3(C)CC[C@H](O)C(C)(C)[C@@H]3[C@@H](O[C@@H]3O[C@H](CO)[C@@H](O)[C@H](O)[C@H]3O[C@@H]3O[C@@H](C)[C@H](O)[C@@H](O)[C@H]3O)C[C@]12C [ginsenoside Re] | 15.135
CC(C)=CCC[C@](C)(O[C@@H]1O[C@H](CO)[C@@H](O)[C@H](O)[C@H]1O)[C@H]1CC[C@]2(C)[C@@H]1[C@H](O)C[C@@H]1[C@@]3(C)CC[C@H](O[C@@H]4O[C@H](CO)[C@@H](O)[C@H](O)[C@H]4O[C@@H]4O[C@H](CO)[C@@H](O)[C@H](O)[C@H]4O)C(C)(C)[C@@H]3CC[C@]12C [ginsenoside Rd] | 11.000

Continue with the compound presented below.
Input line: Give its Accumulative excretion amount value. Item: CC(C)=CCC[C@](C)(O[C@@H]1O[C@H](CO[C@@H]2O[C@H](CO)[C@@H](O)[C@H](O)[C@H]2O)[C@@H](O)[C@H](O)[C@H]1O)[C@H]1CC[C@]2(C)[C@@H]1[C@H](O)C[C@@H]1[C@@]3(C)CC[C@H](O[C@@H]4O[C@H](CO)[C@@H](O)[C@H](O)[C@H]4O[C@@H]4O[C@H](CO)[C@@H](O)[C@H](O)[C@H]4O)C(C)(C)[C@@H]3CC[C@]12C [ginsenoside Rb1]
Output line: 48.081

* * *

procedureSummary: Fecal excretion study in rats after oral NS, SF or CNS (LC–MS/MS)
Assay type: in vivo
conditionNotes: rat feces, oral NS 60 mg/kg, 24 h
Procedure: The animal room was set at constant temperature of 20 ± 2 °C with humidity of 50 ± 20% and 12/12 h light/dark cycle. Eighteen male rats were fasted for 12 h before starting the experiment. […] The urine volume was recorded and the dry feces were measured for each collection period. […] The accumulative excretion percentage was calculated for each analyte as follows. […]
propertyLabel: Accumulative excretion percentage (%)
Numbers only; they are read as %.

Input line: Give its Accumulative excretion percentage value. Item: CC(C)=CCC[C@](C)(O[C@@H]1O[C@H](CO)[C@@H](O)[C@H](O)[C@H]1O)[C@H]1CC[C@]2(C)[C@@H]1[C@H](O)C[C@@H]1[C@@]3(C)CC[C@H](O)C(C)(C)[C@@H]3[C@@H](O[C@@H]3O[C@H](CO)[C@@H](O)[C@H](O)[C@H]3O)C[C@]12C [ginsenoside Rg1]
Output line: 2.071

* * *

procedureSummary: Urinary excretion study in rats after oral NS, SF or CNS (LC–MS/MS)
Assay type: in vivo
conditionNotes: rat urine, oral NS 60 mg/kg, 72 h
propertyLabel: Accumulative excretion percentage (%)
Numbers only; they are read as %.

CC(C)=CCC[C@](C)(O[C@@H]1O[C@H](CO[C@@H]2O[C@H](CO)[C@@H](O)[C@H](O)[C@H]2O)[C@@H](O)[C@H](O)[C@H]1O)[C@H]1CC[C@]2(C)[C@@H]1[C@H](O)C[C@@H]1[C@@]3(C)CC[C@H](O[C@@H]4O[C@H](CO)[C@@H](O)[C@H](O)[C@H]4O[C@@H]4O[C@H](CO)[C@@H](O)[C@H](O)[C@H]4O)C(C)(C)[C@@H]3CC[C@]12C [ginsenoside Rb1] | 0.058
CC(C)=CCC[C@](C)(O[C@@H]1O[C@H](CO)[C@@H](O)[C@H](O)[C@H]1O)[C@H]1CC[C@]2(C)[C@@H]1[C@H](O)C[C@@H]1[C@@]3(C)CC[C@H](O[C@@H]4O[C@H](CO)[C@@H](O)[C@H](O)[C@H]4O[C@@H]4O[C@H](CO)[C@@H](O)[C@H](O)[C@H]4O)C(C)(C)[C@@H]3CC[C@]12C [ginsenoside Rd] | 0.043

Input line: Give its Accumulative excretion percentage value. Item: CC(C)=CCC[C@](C)(O[C@@H]1O[C@H](CO)[C@@H](O)[C@H](O)[C@H]1O)[C@H]1CC[C@]2(C)[C@@H]1[C@H](O)C[C@@H]1[C@@]3(C)CC[C@H](O)C(C)(C)[C@@H]3[C@@H](O[C@@H]3O[C@H](CO)[C@@H](O)[C@H](O)[C@H]3O[C@@H]3O[C@@H](C)[C@H](O)[C@@H](O)[C@H]3O)C[C@]12C [ginsenoside Re]
Output line: 0.156
